Test system: 521955-158-R2-J5-PDC complex spheroid growth, % test/control;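 also: spheroids exposed to agents for 7 days before readout; 100% = DMSO vehicle control viability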
EXPERIMENTAL DETAILS: Anticancer human tumor 521955-158-R2-J5-PDC patient-derived pancreatic carcinoma cell line growth inhibition [Asc]
PROTOCOL CONDITIONS: second compound 0.1 µM; first compound 0.949 µM; active compounds read low
PARAMETER: viability, T/C (%)
Only the number, expressed in %, is required.

Solved cases (2 shown):
molecule="CCN1C(C(=O)NC23CCC(C(=O)O)(CC2)CC3)C(c2cccc(Cl)c2F)C2(C(=O)Nc3cc(Cl)ccc32)C12CCCCC2 (stereo not drawn) + CNC(C)C(=O)NC1CN(S(=O)(=O)c2cccc(S(=O)(=O)N3CCC4CCC(C(=O)NC(c5ccccc5)c5ccccc5)N4C(=O)C(NC(=O)C(C)NC)C3)c2)CCC2CCC(C(=O)NC(c3ccccc3)c3ccccc3)N2C1=O" parameter="viability, T/C" quantity_unit=% value_measured=114
molecule="Cc1nc(N2CCC3(CC2)COC(C)C3N)c(CO)nc1Sc1ccnc(N)c1Cl (stereo not drawn) + CNC(C)C(=O)NC1CN(S(=O)(=O)c2cccc(S(=O)(=O)N3CCC4CCC(C(=O)NC(c5ccccc5)c5ccccc5)N4C(=O)C(NC(=O)C(C)NC)C3)c2)CCC2CCC(C(=O)NC(c3ccccc3)c3ccccc3)N2C1=O" parameter="viability, T/C" quantity_unit=% value_measured=52.1

From here, focus on the item given below.
Ask: Bench note: what viability, T/C did CCN1C(C(=O)NC23CCC(C(=O)O)(CC2)CC3)C(c2cccc(Cl)c2F)C2(C(=O)Nc3cc(Cl)ccc32)C12CCCCC2 (stereo not drawn) + Cc1c(S(C)(=O)=O)c(-c2cc(F)cc(N3CCN(c4ccc(NS(=O)(=O)c5ccc(NC(CCN6CCC(C(=O)OCCCP(=O)(O)O)CC6)CSc6ccccc6)c(S(=O)(=O)C(F)(F)F)c5)cc4)CC3)c2)c(-c2ccc(Cl)cc2)n1C(C)C show?
Reply: 76.5
